# method.description: Metabolic stability in rat liver microsomes
# Format: in vitro ADME
Reported % remaining @ 40 min values follow for various molecules

| molecule | % remaining @ 40 min |
| --- | --- |
| C=CC(=O)Nc1cccc(-c2n[nH]c3c2CCCC3)c1 [GO4] | 0% |
| C=CC(=O)Nc1cc(-c2n[nH]c3ccccc23)ccc1C [GO72] | 0% |
| C=CC(=O)Nc1cccc(-c2n[nH]c3cc(C)ccc23)c1 [GO80] | 1% |
| C=CC(=O)Nc1cccc(-c2n[nH]c3c(Cl)cccc23)c1 [GO89] | 1% |
| C=CC(=O)Nc1cccc(-c2n[nH]c3c2COCC3)c1 [GO55] | 40% |
| C=CC(=O)Nc1cccc(-c2n[nH]c3c2CC(C)(C)CC3)c1 [GO54] | 4% |
| C=CC(=O)Nc1cccc(-c2n[nH]c3cc(Br)ccc23)c1 [GO98] | 2% |
| C=CC(=O)Nc1cccc(-c2n[nH]c3c(F)cccc23)c1 [GO88] | 2% |
| C=CC(=O)Nc1cc(C#N)cc(-c2n[nH]c3cc(C)ccc23)c1 [GO108] | 6% |
| C=CC(=O)Nc1cccc(-c2n[nH]c3ccccc23)c1 [GO32] | 0% |

----------
# method.description: Metabolic stability in rat liver microsomes
# Format: in vitro ADME
So basically, if % remaining @ 40 min comes in under 20% it's t, and if it's 20% or more it's f.

| smiles.str | group.label |
| --- | --- |
| C=CC(=O)Nc1cc(C#N)cc(-c2n[nH]c3ccccc23)c1 | t |
| C=CC(=O)Nc1cccc(-c2n[nH]c3cc(OC)ccc23)c1 | f |
| C=CC(=O)Nc1cccc(-c2n[nH]c3cc(Cl)ccc23)c1 | t |
| C=CC(=O)Nc1cc(C(=O)O)cc(-c2n[nH]c3ccccc23)c1 | f |
| C=CC(=O)Nc1cc(-c2n[nH]c3ccccc23)ccn1 | f |
| C=CC(=O)Nc1cc(C(=O)NC)cc(-c2n[nH]c3ccccc23)c1 | f |

----------
# assay.target: MKK7 (Homo sapiens, UniProt O14733)
# Construct: purchased Nanosyn (contract assay)
# Sequence (O14733 whole entry): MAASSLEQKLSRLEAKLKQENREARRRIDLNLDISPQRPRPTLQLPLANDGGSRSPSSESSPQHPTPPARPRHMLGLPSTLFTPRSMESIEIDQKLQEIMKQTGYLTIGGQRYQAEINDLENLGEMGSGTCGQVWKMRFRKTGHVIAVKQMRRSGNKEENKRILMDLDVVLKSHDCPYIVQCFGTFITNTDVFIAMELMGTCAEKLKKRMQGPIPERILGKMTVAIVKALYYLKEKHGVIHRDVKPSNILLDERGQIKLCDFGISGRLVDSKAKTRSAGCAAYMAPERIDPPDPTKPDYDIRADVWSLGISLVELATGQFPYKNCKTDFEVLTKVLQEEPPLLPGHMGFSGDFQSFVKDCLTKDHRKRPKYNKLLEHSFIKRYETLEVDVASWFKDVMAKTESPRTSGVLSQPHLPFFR
# method.description: In vitro kinase activity assay for MKK7 (Nanosyn)
# Type: biochemical
# condition.description: read-out: MKK7 IC50
pIC50: −log10 of the molar value.

| smiles.str | assay.target | pIC50 |
| --- | --- | --- |
| C=CC(=O)Nc1cccc(-c2n[nH]c3ccccc23)c1 | MKK7 (Homo sapiens, UniProt O14733) | 8.05 |

----------
# method.description: Metabolic stability in rat liver microsomes
# Type: in vitro ADME
readout.type: Halflife

| compound | result.value |
| --- | --- |
| C=CC(=O)Nc1cc(C(=O)NC)cc(-c2n[nH]c3ccccc23)c1 | >40 min |
| C=CC(=O)Nc1cc(-c2n[nH]c3ccccc23)ccn1 | 18 min |
| COc1cc(OC)cc(C(C#N)(CCCN(C)CCc2ccc(OC)c(OC)c2)C(C)C)c1 (stereo not shown) [REF1250, reference compound] | 6 min |
| C=CC(=O)Nc1cc(C(=O)O)cc(-c2n[nH]c3ccccc23)c1 | >40 min |

----------
# Tested on: p-cJun in HEK293 cells
# method.description: p-cJun inhibition in HEK293 cells
# Format: cell-based
# condition.description: Homo sapiens

| smiles.str | assay.target | EC50 |
| --- | --- | --- |
| C=CC(=O)Nc1cccc(-c2n[nH]c3ccccc23)c1 | p-cJun in HEK293 cells | 2.26 µM |
| C=CC(=O)Nc1cccc(-c2n[nH]c3cc(C)ccc23)c1 | p-cJun in HEK293 cells | 1.67 µM |
| C=CC(=O)Nc1cccc(-c2n[nH]c3cc([N+](=O)[O-])ccc23)c1 | p-cJun in HEK293 cells | 2.52 µM |
